# Tested on: Cryptococcus neoformans
# Reported conditions: Concentration 32 ug.mL-1; ASSAY_TEST Inhibition of Fungal Growth; detection method Resazurin; Absorption (OD600-OD570); plate type 384well; NBS; CORNING #3640
# Description: Antifungal activity against Cryptococcus neoformans H99 ATCC 208821 (CO-ADD:FG_002); MIC in YNB media using NBS plates, by Resazurin OD(600-570)
Entries with a potency or affinity are not part of this list.
Recorded metric: Inhibition (%)
One number for each entry, in %.

Study these solved cases before continuing.
N=C(Nc1ccccc1Cl)c1cscn1
-8.23
O=[N+]([O-])c1ccc(Cn2c(-c3cscn3)nc3ccccc32)cc1
-41.75

Now for a further compound.
Task: System Cryptococcus neoformans. Read-out Inhibition. Item N=C(Nc1ccccc1)c1cscn1 . Report value.
Result: 4.1
